- assay protocol: Stability of the compound assessed as Engyodontium album PMSF-pretreated proteinase K-mediated compound hydrolysis at 20 uM incubated for 10 mins at 70 degC by coomassie blue staining-based NuPAGE analysis
- Format: ADME
- measurement conditions: parengyodontium album, 1 h, in the assay text read “incubated for up to 1 hr at 37 degC” for “incubated for 10 mins at 70 degC”
measurement type: Stability

Known Stability results, listed for orientation:
H-KKKKKAAFAKAWAAFAA-NH2 = Stable
H-KKKKKKAAFAAWAAFAA-NH2 = Stable
H-KKKAAFAKAWAKAFKAA-NH2 = Unstable
H-KKKKAAFAKAWAKAFAA-NH2 = Unstable
H-KAAKKFAKAWAKAFKAA-NH2 = Unstable

As a next step, examine the substance that follows.
So what's the measured Stability for this one? H-KKAKAFAKAWAKAFKAA-NH2
Unstable

###

- assay protocol: Hemolytic activity in human RBC assessed as hemolysis at 40 uM measured after 1 hr
- Type: ADME, cell-based, Erythrocyte
- measurement conditions: human red blood cells (erythrocytes), read-out: Activity
measurement type: hemolysis at 1 h, 40 µM (%)
API: value field is a number in %; no unit string.

H-KKAKAFAKAWAKAFKAA-NH2 = 0
H-KKKKKKALFALWLAFLA-NH2 = 33
H-KKKAAFLKLWAKLFKAL-NH2 = 100
H-KKLKAFLKAWAKLFKAL-NH2 = 89
H-KALKKFLKAWAKLFKAL-NH2 = 81
H-KKKAAFAKAWAKAFKAA-NH2 = 0
H-KKKKKAAFAKAWAAFAA-NH2 = 0
H-KKKKAAFLKLWLKLFAA-NH2 = 8

So what's the measured hemolysis at 1 h, 40 µM for this one? H-KAAKKFAKAWAKAFKAA-NH2
0

###

- System: Lipid bilayer
- assay protocol: Binding affinity to POPC membrane at 25 uM by CD spectroscopic analysis
- Assay type: ADME
measurement type: Activity

Known Activity results, listed for orientation:
H-KKAKAFAKAWAKAFKAA-NH2 = Not Active
H-KKKKKAAFAKAWAAFAA-NH2 = Not Active
H-KKKKKALFLKLWAAFLA-NH2 = Active
H-KKKAAFAKAWAKAFKAA-NH2 = Not Active
H-KALKKFLKAWAKLFKAL-NH2 = Active
H-KKKKKKALFALWLAFLA-NH2 = Active

So what's the measured Activity for this one? H-KKKKAAFLKLWLKLFAA-NH2
Active

So what's the measured Activity for this one? H-KAAKKFAKAWAKAFKAA-NH2
Not Active

So what's the measured Activity for this one? H-KKKKAAFAKAWAKAFAA-NH2
Not Active

So what's the measured Activity for this one? H-KKKKKKAAFAAWAAFAA-NH2
Not Active

So what's the measured Activity for this one? H-KKLKAFLKAWAKLFKAL-NH2
Active

So what's the measured Activity for this one? H-KKKAAFLKLWAKLFKAL-NH2
Active

###

- Test system: Escherichia coli
- assay protocol: Binding affinity to Escherichia coli lipid extract liposome membrane at 10 uM by tryptophan fluorescence method
- Format: cell membranes
Activity calls are given as the source filed them. No cut-off for these calls is given here.
measurement type: Activity

Known Activity results, listed for orientation:
H-KKKKKAAFAKAWAAFAA-NH2 = Active
H-KKAKAFAKAWAKAFKAA-NH2 = Active
H-KKKKAAFAKAWAKAFAA-NH2 = Active
H-KAAKKFAKAWAKAFKAA-NH2 = Active
H-KKKKKKAAFAAWAAFAA-NH2 = Active

As a next step, examine the substance that follows.
So what's the measured Activity for this one? H-KKKAAFAKAWAKAFKAA-NH2
Active

###

- Tested on: Pseudomonas aeruginosa
- assay protocol: Antibacterial activity against tobramycin-pretreated Pseudomonas aeruginosa isolate 380 after 20 hrs by microtiter dilution method
- Assay type: functional
Below, each of the substances is paired with its reported MIC value.

H-KALKKFLKAWAKLFKAL-NH2 = 6.3 µM
H-KKKKKALFLKLWAAFLA-NH2 = > 50 µM
H-KKKKKAAFAKAWAAFAA-NH2 = 50 µM
H-KKAKAFAKAWAKAFKAA-NH2 = > 50 µM
H-KKKAAFAKAWAKAFKAA-NH2 = > 50 µM

So what's the measured MIC for this one? H-KKLKAFLKAWAKLFKAL-NH2
1.5 µM

So what's the measured MIC for this one? H-KAAKKFAKAWAKAFKAA-NH2
> 50 µM

So what's the measured MIC for this one? H-KKKKAAFLKLWLKLFAA-NH2
> 50 µM

So what's the measured MIC for this one? H-KKKKKKAAFAAWAAFAA-NH2
12.5 µM

So what's the measured MIC for this one? H-KKKAAFLKLWAKLFKAL-NH2
3.1 µM

So what's the measured MIC for this one? H-KKKKKKALFALWLAFLA-NH2
> 50 µM

So what's the measured MIC for this one? H-KKKKAAFAKAWAKAFAA-NH2
50 µM

###

- Tested on: Pseudomonas aeruginosa
- assay protocol: Antibacterial activity against Pseudomonas aeruginosa PAO1 measured after 20 hrs by microtiter dilution method
- Type: functional
- measurement conditions: PAO1, 20 h
measurement type: MIC (µM)
API: value field is a number in µM; no unit string.

H-KKLKAFLKAWAKLFKAL-NH2 = 3.1
H-KKKAAFAKAWAKAFKAA-NH2 = 50
H-KKKKKALFLKLWAAFLA-NH2 = 12.5

So what's the measured MIC for this one? H-KKAKAFAKAWAKAFKAA-NH2
25

So what's the measured MIC for this one? H-KKKKKKAAFAAWAAFAA-NH2
12.5

So what's the measured MIC for this one? H-KAAKKFAKAWAKAFKAA-NH2
50

###

- Test system: Escherichia coli
- assay protocol: Binding affinity to Escherichia coli lipid extract liposome membrane at 10 uM by tryptophan fluorescence quenching method
- Assay type: cell membranes
Activity calls are given as the source filed them. No cut-off for these calls is given here.
Pick from 1 for active, -1 for inactive when you respond.

H-KALKKFLKAWAKLFKAL-NH2 = -1
H-KAAKKFAKAWAKAFKAA-NH2 = 1
H-KKKKKKAAFAAWAAFAA-NH2 = 1

Alright, here's another substance for you.
What outcome does the record of this test show for H-KKKKKKALFALWLAFLA-NH2 ?
1

###

- System: Escherichia coli
- assay protocol: Induction of terbium(3)-loaded Escherichia coli lipid extract liposome membrane disruption at 10 uM measured after 20 mins by fluorescence assay relative to control
- Type: cell membranes
Below, each of the substances is paired with its reported Activity value.
Be sure to follow the number with its unit.

H-KKLKAFLKAWAKLFKAL-NH2 = 40%

So what's the measured Activity for this one? H-KKKKKKAAFAAWAAFAA-NH2
35%

So what's the measured Activity for this one? H-KKKKAAFLKLWLKLFAA-NH2
40%

So what's the measured Activity for this one? H-KKKAAFLKLWAKLFKAL-NH2
40%

So what's the measured Activity for this one? H-KKKAAFAKAWAKAFKAA-NH2
80%

So what's the measured Activity for this one? H-KKKKKKALFALWLAFLA-NH2
80%

So what's the measured Activity for this one? H-KKAKAFAKAWAKAFKAA-NH2
80%

So what's the measured Activity for this one? H-KAAKKFAKAWAKAFKAA-NH2
8%

So what's the measured Activity for this one? H-KALKKFLKAWAKLFKAL-NH2
40%

So what's the measured Activity for this one? H-KKKKKALFLKLWAAFLA-NH2
40%

###

- System: Lipid bilayer
- assay protocol: Binding affinity to terbium(3)-loaded POPC membrane at 10 uM measured for 10 mins by fluorescence assay relative to control
- Assay type: ADME
Below, each of the substances is paired with its reported Activity value.

Known Activity results, listed for orientation:
H-KALKKFLKAWAKLFKAL-NH2 = 25 to 70%
H-KKKKKALFLKLWAAFLA-NH2 = 25 to 70%

So what's the measured Activity for this one? H-KKKAAFLKLWAKLFKAL-NH2
25 to 70%

So what's the measured Activity for this one? H-KKLKAFLKAWAKLFKAL-NH2
25 to 70%

So what's the measured Activity for this one? H-KKKKKKALFALWLAFLA-NH2
4 to 8%

So what's the measured Activity for this one? H-KKKKAAFLKLWLKLFAA-NH2
25 to 70%

###

- assay protocol: Hemolytic activity in human RBC assessed as hemolysis at 40 uM measured after 1 hr
- Format: ADME, cell-based, Erythrocyte
- measurement conditions: human red blood cells (erythrocytes), read-out: Activity
measurement type: hemolysis at 1 h, 40 µM (%)
API: value field is a number in %; no unit string.

Known hemolysis at 1 h, 40 µM results, listed for orientation:
H-KKKKKALFLKLWAAFLA-NH2 = 49
H-KKKKKKAAFAAWAAFAA-NH2 = 0

As a next step, examine the substance that follows.
So what's the measured hemolysis at 1 h, 40 µM for this one? H-KKKKAAFAKAWAKAFAA-NH2
0
